compound | melting point
CC(C)CNS(=O)(=O)c1ccc(C#N)cc1 | 99 to 101 °C
Cc1ccc(-c2nnc(N)s2)c(C)c1 | 180 to 182 °C
Nc1ccccc1C(=O)Nc1ccc(Cl)cn1 | 158 to 160 °C
CCOC(=O)c1c(CBr)oc2ccccc12 | 84 to 86 °C
CS(=O)(=O)CCS(=O)(=O)c1ccc(N)cc1 | 209 to 211 °C
COC(=O)c1cnc2[nH]nc(C)c2c1 | 185 to 187 °C
COc1cc(Br)cc(F)c1C#N | 75 to 77 °C
CCOC(=O)c1ccc(N2CCNCC2)nc1 | 49 to 51 °C
O=C(NNC(=O)C(Cl)Cl)c1ccccc1 | 184 to 186 °C
CS(=O)(=O)c1ccc(OCCCBr)cc1 | 93 to 95 °C
O=C(O)CNC(=O)c1c(Cl)cccc1[N+](=O)[O-] | 186 to 188 °C
Cc1ccc(C(N)=O)cc1O | 181 to 183 °C
CC(C)(C)OC(=O)Oc1ccc(N)cc1 | 112 to 114 °C
CCCOc1ccc(C=CC(=O)O)cc1OC | 187 to 189 °C
O=C(O)C1CCN(c2ccc(Cl)cn2)CC1 | 152 to 154 °C
NCC(O)CN1CCOCC1 (configuration not stated) | 36 to 40 °C
COc1ccc(Cn2cc(C(=O)O)cn2)cc1 | 132 to 134 °C

====

Overview of reported melting point across a group of compounds:

compound | melting point
CC(Cl)C(=O)Nc1ccc(I)cc1 (stereo not given) | 159 to 161 °C
Cc1nc(Cl)c2c(CC(C)C)csc2n1 | 60 to 62 °C
NS(=O)(=O)c1ccc(N2CCNCC2)cc1 | 219 to 221 °C
Cc1nc(COc2ccc(C=O)cc2)cs1 | 46 to 48 °C
CC1(O)C(=O)Nc2ccccc21 (stereo not given) | 156 to 158 °C
CC(C)N1C(=O)CNC1=O | 83 to 85 °C
NNC(=O)Cc1cc[nH]n1 | 180 to 182 °C
Cc1ccc(C)c(SCC(=O)O)c1 | 73 to 75 °C
CCc1ccc(OCc2nnc(S)n2Cc2ccccc2)cc1 | 137 to 139 °C
O=S(=O)(Nc1cc(F)cc(F)c1)c1ccc(Cl)nc1 | 199 to 201 °C

====

Overview of reported melting point across a group of compounds:
measured.endpoint: melting point

compound | measured.endpoint | result
NC(=O)NCc1ccc([N+](=O)[O-])cc1 | melting point | 199 to 201 °C
O=C(O)c1cncnc1-c1ccccc1 | melting point | 141 to 143 °C
COCCC(=O)Nc1ccc(F)cc1C(=O)O | melting point | 110 to 112 °C
CNc1ccnc2ccncc12 | melting point | 223 to 225 °C
NNc1nc(-c2ccc(Cl)cc2)no1 | melting point | 179 to 181 °C
O=C(O)CCC(=O)c1ccc2c(c1)-c1ccccc1C2 | melting point | 189 to 191 °C
CCNC(=O)OCC(F)(F)F | melting point | 27 to 29 °C
O=C(O)CNC1CCS(=O)(=O)C1 (stereo not given) | melting point | 241 to 243 °C
Cc1ccc2cc(CCl)c(Cl)nc2c1C | melting point | 109 to 111 °C
Cc1[nH]c(=O)[nH]c1C | melting point | 239 to 241 °C

====

Overview of reported melting point across a group of compounds:

compound | melting point
CNC(=O)Nc1ccc(N)cc1 | 147 to 149 °C
CCOc1cc2c(cc1CBr)OC(C)C2 (stereo not drawn) | 69 to 71 °C
CC(C)C(Br)C(=O)N(C)C1CCCCC1 (stereo not drawn) | 72 to 74 °C
O=C(O)c1cc(Br)c2c(c1)OCCO2 | 258 to 260 °C
O=C(CCl)N(Cc1ccc(Cl)cc1)C12CC3CC(CC(C3)C1)C2 | 112 to 114 °C
CCc1cccnc1N | 38 to 40 °C
O=C(O)c1ccc(Br)nn1 | 140 to 142 °C
O=C(O)c1cccnc1Nc1ccccc1F | 215 to 217 °C
CC1CCCCC1NC(=O)NC(=O)CCl (stereo not drawn) | 126 to 128 °C
Cc1ccc(F)cc1NC(=O)C(C)Cl (stereo not drawn) | 101 to 103 °C
O=C(c1ccc(Br)cc1)C(F)(F)F | 29 to 31 °C
O=C(O)CSc1ccc(Br)cc1 | 117 to 119 °C
Cc1cc(N)n(-c2nc3ccccc3o2)n1 | 221 to 223 °C

====

Overview of reported melting point across a group of compounds:

compound | melting point
O=C(O)c1cc(C2CC2)nc2ccccc12 | 208 to 210 °C
CCS(=O)(=O)c1cccc(S(=O)(=O)Cl)c1 | 92 to 94 °C
O=C(O)CCc1ccncc1 | 209 to 211 °C
CC(=O)c1cnn(C)c1 | 51 to 53 °C
CCc1cccc2c(C3=CCNCC3)c[nH]c12 | 190 to 192 °C
N#Cc1cnc2ccccc2c1N | 274 to 276 °C
Cc1cnc(-c2cccc(C(=O)O)c2)s1 | 210 to 212 °C
O=C(Nc1ncccc1O)c1ccc(C2SCCS2)cc1 | 114 to 116 °C
CC(C(=O)O)c1cccc(Cl)c1 (configuration not stated) | 75 to 77 °C
CCC(C)C(=O)N1CCCC(C(=O)O)C1 (configuration not stated) | 118 to 120 °C
O=S(=O)(Cl)c1c[nH]c2ncccc12 | 187 to 189 °C
CC(Cl)C(=O)NCC(F)(F)F (configuration not stated) | 42 to 44 °C
O=C(CN1CCNCC1)NCc1ccccc1 | 49 to 51 °C
COC(=O)c1ccc(C)c(S(=O)(=O)Cl)c1 | 45 to 47 °C
Cc1noc(C(F)(F)F)c1C(=O)O | 140 to 142 °C
OCc1cn(-c2ccccc2)nc1-c1ccccc1 | 91 to 93 °C
Cc1cc(Cl)ccc1S(=O)(=O)Cl | 54 to 56 °C
Nc1cc(C(=O)O)nc2ccccc12 | 276 to 278 °C
CNc1cc(C(=O)OC)ccc1[N+](=O)[O-] | 137 to 139 °C
CC(C)(C)n1ncc2c(=O)[nH]cnc21 | 226 to 228 °C
CNC(=O)c1cccc(Cl)n1 | 42 to 44 °C
O=C(Nc1cccc2cccnc12)OCC(F)(F)F | 75 to 77 °C
CCOC(=O)c1sc(-c2ccc(Cl)cc2)cc1N | 200 to 202 °C
O=[N+]([O-])c1ccc(S(=O)(=O)Cl)cn1 | 81 to 83 °C
CS(=O)CCC(=O)O (configuration not stated) | 57 to 59 °C
CS(=O)(=O)Nc1ccc(N)c(Cl)c1 | 129 to 131 °C
NS(=O)(=O)c1ccc(CCCl)cc1 | 178 to 180 °C
CCCC(=O)N1CCCCC1C(=O)O (configuration not stated) | 63 to 65 °C
C=CCNS(=O)(=O)c1ccc(C(=O)O)cc1 | 215 to 217 °C
NC(=O)c1ccc(OCCCl)cc1 | 182 to 184 °C
CN(C)C(=O)Sc1cnc2nccn2c1 | 129 to 131 °C
CS(=O)(=O)c1ccc(F)c(NC(=O)CCl)c1 | 126 to 128 °C
CS(=O)(=O)CCn1cc(Br)cn1 | 94 to 96 °C
ClC1=Nc2c(cnn2-c2ccccc2)CN1 | 189 to 191 °C
CS(=O)(=O)c1cccc(Cl)c1C=O | 102 to 104 °C
CC1C(=O)NCCN1C(=O)c1ccccc1 (configuration not stated) | 146 to 148 °C
CC1(Cc2ccc3c(c2)OCO3)NC(=O)NC1=O (configuration not stated) | 183 to 185 °C
Cn1cc(/C=C/[N+](=O)[O-])cn1 | 127 to 129 °C
Cc1nccn1-c1cc(C#N)ccn1 | 194 to 196 °C
CS(=O)(=O)NC1(C(=O)O)CCCCC1 | 114 to 116 °C
CCC(CC)NC(=O)C(=O)NN | 177 to 179 °C
CSCc1c(C(=O)O)oc2ccccc12 | 100 to 102 °C

====

smiles.string | melting point
CCOc1c(OC)cc(C=O)cc1OC | 48 to 50 °C
O=C(O)c1ccc2c(=O)n(-c3ccccc3)c(S)nc2c1 | 368 to 370 °C
Nc1nc(Cl)ccc1C(=O)O | 216 to 218 °C
NC(=O)c1cccnc1N1CCNCC1 | 145 to 147 °C
N#CCC(=O)c1c[nH]c2cc(Cl)ccc12 | 293 to 295 °C
CC(C)(C)OC(=O)N1CCCc2cc(N)ccc21 | 55 to 57 °C
O=S(=O)(Cl)c1ccc2ncccc2c1 | 87 to 89 °C
Nc1nc2ncccc2[nH]1 | 268 to 270 °C
Nc1ccc(S(=O)(=O)Nc2cccnc2)cc1 | 256 to 258 °C
